Experiment: Zeta-potential measurement
Type: physicochemical
Conditions: zeta-potential of peptide; source data of Figure 2C
Measurement Label: Zeta-Potential / mV (mV)
// units = mV; emit number, no label

In the examples that follow, each entry is paired with its recorded Zeta-Potential / mV.
1. KIKIQIMQWN ... 8.94
2. SISISRRI ... -9.316
3. KVKGVGK ... -7.825
4. KIKQIINMWQ ... 16.2

Consider the substance RGECKFKFQF and give its measured Zeta-Potential / mV.
22.32

Please give the result for KFKQFFINMWQ too.
10.28

###

Tested on: TZM-bl cells
Type: cell-based
Details: CellTiter-Glo, peptide 0.26 µM, mean of n = 3 replicates
Parameter: viability 0.26 µM. Scope: all listed entries.
The answer should be written as a number, with no unit following it.

1. KFKFQFFF [TG12] ... 108.2

Query substance follows.
Entry CKIKIQI [MG3b] : reported viability 0.26 µM = ?
107.8
